Let's look at some molecules and their measured growth.
Test system: SF-295 CNS
measurement.description: NCI-60 one-dose screen, 48 h (100 = growth as untreated, 0 = no growth, -100 = all killed)
condition.description: 10 µM unless noted
About 83,000 compounds went through this panel and 20% of them were active in at least one assay; those are over-represented in the sample as a whole.
measurement.name: growth (%)

molecule: COc1ccc(C(=O)N2NC(=O)/C(=C/c3ccc(F)cc3)N=C2c2ccccc2)cc1
uom: %
measured.number: 80.4

molecule: O=C1NC(=C(Cl)Cl)/C(=N/S(=O)(=O)N2CCC(C3(C(F)(F)F)N=N3)CC2)N1
uom: %
measured.number: 101

molecule: O=C(Oc1ccccc1[N+](=O)[O-])C1CCCN1C(=O)OCc1ccccc1 (configuration not stated)
uom: %
measured.number: 117

molecule: O=C(/C=C/c1ccccc1)c1cccc(O)c1
uom: %
measured.number: 96.8

molecule: Cc1ccc(/C=C2\CN(C(=O)CCN3CCC(=NO)CC3)C/C(=C\c3ccc(C)cc3)C2=O)cc1
uom: %
measured.number: -1.83

molecule: CCCCCCCCC(C)OC(=O)c1nn(C(C)=O)c2ccccc12 (configuration not stated)
uom: %
measured.number: 91.5

molecule: Cc1ccc(-c2nc(C(Cl)Cl)n3nc(-c4ccccc4)cc3n2)cc1
uom: %
measured.number: 66.2

molecule: COc1ccc2c(c1)OC1=C(C(=O)OC1)C2c1cc(OC)c2c(c1)OCO2 (configuration not stated)
uom: %
measured.number: 9.01

molecule: COc1ccc(-c2ccc(C)n2-c2ccc(-c3nc4cc(Cl)ccc4s3)cc2)cc1
uom: %
measured.number: 96.6

molecule: CC(C)(C)n1cc(-c2ccnc(NCCCNS(=O)(=O)c3ccc(Cl)cc3)c2)c(-c2cccc(O)c2)n1
uom: %
measured.number: -45

molecule: COC(OC)c1ccccc1
uom: %
measured.number: 112

molecule: Cc1cc(N/N=C/c2nc(-c3ccccc3)oc2C)c2cc(Br)ccc2n1
uom: %
measured.number: 95

molecule: O=C(Nc1ccncc1)C(=O)c1cn(S(=O)(=O)c2ccccc2F)c2ccccc12
uom: %
measured.number: 22.5

molecule: O=c1ccn(-c2ncnc3nc[nH]c23)cc1
uom: %
measured.number: 115

molecule: O=C([O][Sn]([O]C(=O)c1ccccn1)([c]1ccccc1)[c]1ccccc1)c1ccccn1
uom: %
measured.number: 127

molecule: COc1cc2c(cc1OCCCCCn1c3ccccc3c3ccccc31)N=C[C@@H]1CCCN1C2=O
uom: %
measured.number: 11.7

molecule: C=C1C(=O)O[C@H]2[C@H]1CC/C(Cn1cc(CNC(=O)/C=C/c3c[nH]c4ccccc34)nn1)=C\CC[C@@]1(C)O[C@@H]21
uom: %
measured.number: 93.3

molecule: O=C(NCc1cn(Cc2cccc(Oc3ccccc3)c2)nn1)c1cccnc1Nc1ccc(F)cc1
uom: %
measured.number: 50.7

molecule: CC(=O)Nc1ccc(/C=C/C(=O)c2ccccc2)cc1
uom: %
measured.number: 106

molecule: O=C1c2c(Cl)c(Cl)c(Cl)c(Cl)c2C(=O)C2(Cl)CC=CCC12Cl (configuration not stated)
uom: %
measured.number: 106

molecule: O=C(/C=C\c1cccc([N+](=O)[O-])c1)/C=C/c1cccc([N+](=O)[O-])c1
uom: %
measured.number: 100

molecule: CC(C)(C)n1cc(-c2ccnc(NCCNS(=O)(=O)c3ccc(Cl)cc3)c2)c(-c2cccc(O)c2)n1
uom: %
measured.number: 54.4

molecule: C=C[C@@H]1C[C@@H]2Cc3cc(Cl)ccc3N1O2
uom: %
measured.number: 100

molecule: Cc1ccc(Nc2nnc(-c3ccc(Cl)cc3)o2)c(C)c1
uom: %
measured.number: 80.7

molecule: CC(C)(C)n1cc(-c2ccnc(NCCCNS(=O)(=O)c3ccc(F)cc3)c2)c(-c2cccc(O)c2)n1
uom: %
measured.number: 26.8

molecule: Cc1nc2cncc(C#Cc3cncc(C(=O)Nc4ccc(CN5CCN(C)CC5)c(C(F)(F)F)c4)c3)c2nc1C
uom: %
measured.number: 20.5

molecule: Clc1ccc(-c2nc3ccccc3s2)cc1Cl
uom: %
measured.number: 108

molecule: COc1ccc2c(c1)[nH]c(=O)c1c3cc(OC)ccc3cn21
uom: %
measured.number: -18

molecule: CC(C)C(C(=O)NCCN1CCOCC1)N1C(=O)/C(=C/c2ccc(Br)cc2)SC1=S (configuration not stated)
uom: %
measured.number: 102

molecule: CCCCCCCCN(CCCCCCCC)CCCCCCNc1cc(OC)cc2cccnc12
uom: %
measured.number: 109

molecule: C=C(C)[C@@H]1C[C@H](O)Cc2cc(F)ccc2N1
uom: %
measured.number: 116

molecule: O=C1C2(c3ccccc3)C(c3ccccc3)=C(c3ccccc3)C1(c1ccccc1)C1CC=CC12 (configuration not stated)
uom: %
measured.number: 68.1

molecule: CCOC(=O)CN1/C(=N/c2sc3c(c2C(=O)OCC)CCN(C(=O)OCC)C3)SC(=O)/C1=C\C(=O)OC
uom: %
measured.number: 98

molecule: CC(=O)Nc1scc[n+]1Cc1ccccc1
uom: %
measured.number: 105

molecule: C=COC(=O)CCCCCCCCC
uom: %
measured.number: 115

molecule: CN1CCN(Cc2ccc(NC(=O)c3cncc(C#Cc4cnc(N)c5cnccc45)c3)cc2C(F)(F)F)CC1
uom: %
measured.number: 8.91

molecule: O=C(NS(=O)(=O)c1ccccc1)n1cc(-c2ccncc2)c(-c2ccc(Cl)c(O)c2)n1
uom: %
measured.number: 107

molecule: COc1ccc(C2C(C#N)=C(N)Oc3c2ccc2ccccc32)cc1 (configuration not stated)
uom: %
measured.number: 24.2

molecule: O=C(NNC(=S)Nc1ccccc1)c1cc2ccc1CCc1ccc(cc1)CC2
uom: %
measured.number: 49.5

molecule: CC1=C(C#N)C(=O)NC(C)C1 (configuration not stated)
uom: %
measured.number: 99.9

molecule: COc1cc(-c2ncn(/C=C\C(=O)OC(C)C)n2)cc(C(F)(F)F)c1
uom: %
measured.number: 61.3

molecule: NC1=NC(SCc2ccccc2CCl)c2ncn(Cc3ccccc3CCl)c2N1 (configuration not stated)
uom: %
measured.number: 101

---

Tested on: RPMI-8226 leukemia
measurement.description: NCI-60 one-dose screen, 48 h (100 = growth as untreated, 0 = no growth, -100 = all killed)
condition.description: 10 µM unless noted
About 83,000 compounds went through this panel and 20% of them were active in at least one assay; those are over-represented in the sample as a whole.

molecule: CC1CN(c2oc(-c3ccccc3)nc2C#N)CC(C)O1 (stereo unspecified)
measured.on: RPMI-8226 leukemia
growth / %: 104

molecule: C=C(C)[C@@H]1C[C@@H]2Cc3cc(F)ccc3N1O2
measured.on: RPMI-8226 leukemia
growth / %: 65.2

molecule: O=c1ccn(C2CC(O)C(O)C(CO)O2)c(=O)[nH]1 (stereo unspecified)
measured.on: RPMI-8226 leukemia
growth / %: 85.7

molecule: O=C(NNC(=O)N1c2ccccc2C=Cc2ccccc21)c1ccccc1
measured.on: RPMI-8226 leukemia
growth / %: 104

molecule: Nc1nnc(-c2ccc3ccccc3c2O)o1
measured.on: RPMI-8226 leukemia
growth / %: 90.8

molecule: O=C(O)COc1ccc(-c2cssc2=S)cc1
measured.on: RPMI-8226 leukemia
growth / %: 113

molecule: O=c1[nH]c(NCc2ccccc2)nc2nc(Nc3ccc(NC(=S)Nc4ccccc4)cc3)nc(-c3ccc(O)cc3O)c12
measured.on: RPMI-8226 leukemia
growth / %: 90.8

molecule: O=c1[nH]c(-c2ccccc2)nc(CN2CCCCC2)c1O
measured.on: RPMI-8226 leukemia
growth / %: 97.6

molecule: COc1ccc(C2=CC(c3cc(OC)c(OC)c(OC)c3)NC(=O)N2)cc1OC (stereo unspecified)
measured.on: RPMI-8226 leukemia
growth / %: 4.8

molecule: CN(C)CCCC(C#N)c1ccccc1 (stereo unspecified)
measured.on: RPMI-8226 leukemia
growth / %: 108

molecule: COC(=O)[C@]12CC[C@@H](C)[C@H](C)[C@@H]1C1=CC[C@@H]3[C@@]4(C)C(C=O)=C[C@@](C)(COC(=O)c5ccco5)[C@@H]4[C@H](O)C[C@@]3(C)[C@]1(C)CC2
measured.on: RPMI-8226 leukemia
growth / %: -26.8

molecule: O=C(Nc1ccc2c(c1)OCCO2)C(=O)c1c[nH]c2ccccc12
measured.on: RPMI-8226 leukemia
growth / %: 21.6

molecule: COc1cc(-c2nn(-c3cccc(NC(=O)Nc4ccc(Cl)c(Cl)c4)c3)cc2-c2ccncc2)ccc1Cl
measured.on: RPMI-8226 leukemia
growth / %: -11.6

molecule: O=c1[nH]c(Nc2ccc(S(=O)(=O)O)cc2)nc2nc(Nc3ccc(NC(=S)Nc4ccccc4)cc3)nc(-c3ccc(O)cc3O)c12
measured.on: RPMI-8226 leukemia
growth / %: 82.6

molecule: COc1ccc(S(=O)(=O)n2cc(C(=O)C(=O)Nc3ccncc3)c3ccccc32)cc1F
measured.on: RPMI-8226 leukemia
growth / %: 48.6

molecule: COc1ccc2cc(-c3ccc(-c4ccc(C(=N)N)cc4)s3)ccc2c1
measured.on: RPMI-8226 leukemia
growth / %: 91

molecule: COc1ccc(/C=C2\N=C(c3ccccc3)N(C(=O)c3ccccc3O)NC2=O)cc1
measured.on: RPMI-8226 leukemia
growth / %: 46.2

molecule: Cc1ccc(-c2cc3nc(C(Cl)Cl)nc(-c4cccnc4)n3n2)cc1
measured.on: RPMI-8226 leukemia
growth / %: 16.5

molecule: N/C(=N\C(N)=N\c1nc2ccccc2s1)c1cccc(Br)c1
measured.on: RPMI-8226 leukemia
growth / %: 83.3

molecule: O=C1C(Cl)=C(Nc2ccccn2)C(=O)c2ccccc21
measured.on: RPMI-8226 leukemia
growth / %: 56.5

molecule: CCc1cnc(=S)n(-c2ccccc2)c1
measured.on: RPMI-8226 leukemia
growth / %: 119
